Test: Partition coefficient (logP)
Type: physicochemical
Conditions: octanol/water
measured endpoint: logP

Examples with their reported logP follow.
compound="CCCCCCCCCCCCc1ccc(C(=O)CC(SCC(=O)O)C(=O)O)cc1 (stereo unspecified)" assay_result=5.79
compound="Cc1ccc(C(=O)CC(SCC(=O)O)C(=O)O)cc1 (stereo unspecified)" assay_result=1.2

A. CC(C)(C)c1ccc(C(C)(C)C)c(C(=O)CC(SCC(=O)O)C(=O)O)c1 (stereo unspecified)
B. O=C(O)CSC(CC(=O)c1ccc(Cl)cc1)C(=O)O (stereo unspecified)
C. COc1ccc(C(=O)CC(SCC(=O)O)C(=O)O)c(OC)c1OC (stereo unspecified)
Req: Order the records so the highest logP appears first and the lowest last. Give me the labels in the order the question wants.
Resp: A, B, C
(A: 4.12, B: 1.27, C: 0.33)

---

Experiment: Partition coefficient (logP)
Format: physicochemical
Conditions: octanol/water
measured endpoint: logP

Examples with their reported logP follow.
compound="CC(C)c1ccc(C(=O)CC(SCC(=O)O)C(=O)O)cc1 (centres undefined)" assay_result=1.94
compound="CC(C)c1ccc(C(=O)CC(SCC(=O)O)C(=O)O)c(C(C)C)c1 (centres undefined)" assay_result=3.18
compound="CCc1ccc(C(=O)CC(SCC(=O)O)C(=O)O)cc1 (centres undefined)" assay_result=1.61
compound="CC(C)(C)c1ccc(C(=O)CC(SCC(=O)O)C(=O)O)cc1 (centres undefined)" assay_result=2.41
compound="Cc1ccc(C(=O)CC(SCC(=O)O)C(=O)O)c(C)c1 (centres undefined)" assay_result=1.68

A. Cc1ccc(C(=O)CC(SCC(=O)O)C(=O)O)c(Cl)c1 (centres undefined)
B. CCc1cc(CC)c(C(=O)CC(SCC(=O)O)C(=O)O)c(CC)c1 (centres undefined)
C. O=C(O)CSC(CC(=O)c1ccccc1)C(=O)O (centres undefined)
Req: Order the records so the highest logP appears first and the lowest last. Give me the labels in the order the question wants.
Resp: B, A, C
(B: 3.42, A: 1.75, C: 0.71)

---

Experiment: Partition coefficient (logP)
Type: physicochemical
Details: octanol/water
measured endpoint: logP

compound="O=C(O)CSC(CC(=O)c1ccc(Br)cc1)C(=O)O (stereo unspecified)" assay_result=1.54
compound="CCCCc1ccc(C(=O)CC(SCC(=O)O)C(=O)O)cc1 (stereo unspecified)" assay_result=2.45
compound="CC(C)c1cc(C(C)C)c(C(=O)CC(SCC(=O)O)C(=O)O)c(C(C)C)c1 (stereo unspecified)" assay_result=4.41

a. Cc1ccc(C)c(C(=O)CC(SCC(=O)O)C(=O)O)c1 (stereo unspecified)
b. CC(C)c1ccc(C(C)C)c(C(=O)CC(SCC(=O)O)C(=O)O)c1 (stereo unspecified)
c. O=C(O)CSC(CC(=O)c1ccc(F)cc1)C(=O)O (stereo unspecified)
Req: Ordering: ascending logP. Give me the labels in the order the question wants.
Resp: c, a, b
